System: Pseudomonas aeruginosa
Test: Antimicrobial activity against Pseudomonas aeruginosa at 1 ug/mL after 48 hrs by cup plate agar diffusion method
Format: functional
Conditions: read-out: IZ
measure: zone of inhibition at 1 µg/mL (mm)
Quick note: give the figure in mm, leave out the unit.

Worked set:
{"compound_smiles": "CC(=O)OC[C@H]1O[C@@H](Oc2nc(-c3cccs3)cc(-c3ccc(Cl)cc3)c2C#N)[C@H](OC(C)=O)[C@@H]1OC(C)=O", "zone of inhibition at 1 µg/mL / mm": 25}
{"compound_smiles": "N#Cc1c(-c2ccc(Cl)cc2)cc(-c2cccs2)nc1O[C@@H]1O[C@H](CO)[C@@H](O[C@@H]2O[C@H](CO)[C@H](O)[C@H](O)[C@H]2O)[C@H](O)[C@H]1O", "zone of inhibition at 1 µg/mL / mm": 10}

Could you now look at the following compound, please?
// lookup zone of inhibition at 1 µg/mL | system=Pseudomonas aeruginosa | key= N#Cc1c(-c2ccc(Cl)cc2)cc(-c2cccs2)nc1O[C@@H]1O[C@H](CO)[C@H](O)[C@H](O)[C@H]1O
0

----------
Tested on: Pseudomonas aeruginosa
Assay: Antimicrobial activity against Pseudomonas aeruginosa at 1 ug/mL after 48 hrs by cup plate agar diffusion method
Type: functional
Details: read-out: IZ
# cutoff 10 mm applies to zone of inhibition at 1 µg/mL; >= gives rule met, < gives rule not met

# example entries with known answers
{"compound_smiles": "N#Cc1c(-c2ccc(Cl)cc2)cc(-c2cccs2)nc1O[C@@H]1O[C@H](CO)[C@@H](O)[C@H]1O", "class_assignment": "rule met"}
{"compound_smiles": "CC(=O)OC[C@H]1O[C@@H](Oc2nc(-c3cccs3)cc(-c3ccc(Cl)cc3)c2C#N)[C@H](OC(C)=O)[C@@H](OC(C)=O)[C@H]1OC(C)=O", "class_assignment": "rule met"}
{"compound_smiles": "CC(=O)OC[C@H]1O[C@@H](Oc2nc(-c3cccs3)cc(-c3ccc(Cl)cc3)c2C#N)[C@H](OC(C)=O)[C@@H](OC(C)=O)[C@@H]1OC(C)=O", "class_assignment": "rule met"}
{"compound_smiles": "N#Cc1c(-c2ccc(Cl)cc2)cc(-c2cccs2)nc1O[C@@H]1O[C@H](CO)[C@@H](O)[C@H](O)[C@H]1O", "class_assignment": "rule not met"}
{"compound_smiles": "N#Cc1c(-c2ccc(Cl)cc2)cc(-c2cccs2)nc1O[C@@H]1O[C@H](CO)[C@H](O)[C@H]1O", "class_assignment": "rule not met"}

Field: next molecule
Hi team, for CC1(C)S[C@@H]2[C@H](NC(=O)[C@H](N)c3ccccc3)C(=O)N2[C@H]1C(=O)O , is the recorded zone of inhibition at 1 µg/mL at or above 10 mm?
rule met

----------
System: Bacillus subtilis
Assay: Antimicrobial activity against Bacillus subtilis at 1 ug/mL after 48 hrs by cup plate agar diffusion method
Type: functional
Details: read-out: IZ
measure: zone of inhibition at 1 µg/mL
Answers without a unit are incomplete; give the number and then its unit.

Worked set:
{"compound_smiles": "N#Cc1c(-c2ccc(Cl)cc2)cc(-c2cccs2)nc1O[C@@H]1O[C@H](CO)[C@@H](O)[C@H]1O", "recorded_value": "7 mm"}
{"compound_smiles": "N#Cc1c(-c2ccc(Cl)cc2)cc(-c2cccs2)nc1O[C@@H]1O[C@H](CO)[C@@H](O[C@@H]2O[C@H](CO)[C@H](O)[C@H](O)[C@H]2O)[C@H](O)[C@H]1O", "recorded_value": "3 mm"}
{"compound_smiles": "N#Cc1c(-c2ccc(Cl)cc2)cc(-c2cccs2)nc1O[C@@H]1O[C@H](CO)[C@@H](O)[C@H](O)[C@H]1O", "recorded_value": "1 mm"}
{"compound_smiles": "N#Cc1c(-c2ccc(Cl)cc2)cc(-c2cccs2)nc1O[C@@H]1O[C@H](CO)[C@H](O)[C@H]1O", "recorded_value": "3.5 mm"}
{"compound_smiles": "CC(=O)OC[C@H]1O[C@@H](Oc2nc(-c3cccs3)cc(-c3ccc(Cl)cc3)c2C#N)[C@H](OC(C)=O)[C@@H](OC(C)=O)[C@@H]1OC(C)=O", "recorded_value": "11 mm"}
{"compound_smiles": "CC(=O)OC[C@H]1O[C@@H](Oc2nc(-c3cccs3)cc(-c3ccc(Cl)cc3)c2C#N)[C@H](OC(C)=O)[C@@H](OC(C)=O)[C@H]1OC(C)=O", "recorded_value": "10 mm"}

// lookup zone of inhibition at 1 µg/mL | system=Bacillus subtilis | key= N#Cc1c(-c2ccc(Cl)cc2)cc(-c2cccs2)nc1O[C@@H]1O[C@H](CO)[C@H](O)[C@H](O)[C@H]1O
0 mm

// lookup zone of inhibition at 1 µg/mL | system=Bacillus subtilis | key= CC1(C)S[C@@H]2[C@H](NC(=O)[C@H](N)c3ccccc3)C(=O)N2[C@H]1C(=O)O
6 mm

// lookup zone of inhibition at 1 µg/mL | system=Bacillus subtilis | key= CC(=O)OC[C@H]1O[C@@H](Oc2nc(-c3cccs3)cc(-c3ccc(Cl)cc3)c2C#N)[C@H](OC(C)=O)[C@@H]1OC(C)=O
8 mm

Where do these numbers come from? They come from ChEMBL document CHEMBL1795304.
